B1: TRIM55 (parent)
chain: YLPTRGGTTMASGGRFRCPSCRHE

variants of: B1; experiment: protein stability index of a GFP-peptide fusion (GPS, HEK-293T) (PSI 1-6); higher = more stable; conditions: c terminus: a fixed tail appended;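 further: lentivirally expressed fusions sorted by FACS into six bins by GFP to DsRed ratio, PSI derived from sequencing read proportions per bin multiplied by bin number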
// reported protein stability index for each item listed
Give a plain numeric answer without units written out.

// solved cases for protein stability index follow
INSERT INTO results (mut, measurement) VALUES
  ('F16Y', 1.57),
  ('R5I', 1.98),
  ('G14A', 2.23),
  ('C21H', 3),
  ('G6C', 1.84);

Turning now to a further variant:
// protein stability index value for "E24G" : 1.06

meta.source: the supplement of paper PMC10567573
